The reported measurements were obtained from the array DNA melting data of Ke et al. (doi:10.1101/2024.01.08.574731).

test: folding enthalpy; higher = less favourable; fluorescence melt of hairpins on a sequencing array, two-state fit; conditions: sodium 0.088 M
Measured Metric: folding enthalpy (kcal/mol)
Dear colleague, please return just the value in kcal/mol, with no unit written.

Consider the reported folding enthalpy for these sequences:
Biopolymer Sequence | Unit Of Measure | folding enthalpy
GGCGTCGAAAGACATGCC ((((((....)))..))) | kcal/mol | -23.1
GTCGCGGGAAACCACGAC ((((.((....)).)))) | kcal/mol | -43.8
GCACTTCGAAAGAACTGC (((.(((....))).))) | kcal/mol | -22.1
GATCAGGCTGCTGATC ((((((....)))))) | kcal/mol | -46.2
GTCGTACGAAAGTATGAC (((.(((....))).))) | kcal/mol | -41.9

Identify folding enthalpy associated with the sequence GATCCTACGAGGATC ((((((...))))))
-29.5

Give the reported folding enthalpy for this sequence. GATCTGAATCAGATC ((((((...))))))
-34

Provide folding enthalpy value for the following sequence: GCAACCGAAAGGTTGTGC ((((((....)))..)))
-20.5

====

experiment: melting temperature; fluorescence melt of hairpins on a sequencing array, two-state fit, raised by 9.35 °C to match UV melts; settings: sodium 0.088 M
Measured Metric: Tm

Reference set, count: 2
Biopolymer Sequence | Tm
GATTAGGGAAACTTAATC (((((.(....).))))) | 29.1 °C
GTGCTCGAAAGAGTCAC ((((((....))).))) | 49.7 °C

Note Tm for the sequence shown: GTATGGGGAAACCCATGC (.(((((....))))).)
49 °C

Give recorded Tm. GCCGGTGGAAACATCGGC ((((.((....)).))))
58.9 °C

Return reported Tm. Input sequence: GCAGTCGAAAGACACTGC ((((((....)))..)))
43.5 °C

Quote Tm reported for GTGTGTCGAAAGACCAC (((.(((....)))))) please.
54.5 °C

Determine from records and report Tm for GATCCGGAGCCGGATC ((((((....))))))
56.3 °C

Give the measured Tm for GATCGTAGAGACGATC ((((((....))))))
51.9 °C

Query Tm for GATCATGGGCATGATC ((((((....))))))
49.6 °C

Give reported Tm value for GTTCTCCGAAAGGAAAC (((.(((....))))))
35.8 °C

====

assay: folding enthalpy; higher = less favourable; fluorescence melt of hairpins on a sequencing array, two-state fit; details: sodium 0.088 M
Measured folding enthalpy by item
Number in kcal/mol, nothing else.

Worked examples, 5 sequences total:
Biopolymer Sequence | Unit Of Measure | folding enthalpy
GCGGGGCCCGC ((((...)))) | kcal/mol | -34.8
GATCCCCGCTGGGATC ((((((....)))))) | kcal/mol | -32.9
GATGTTCCGAAAGGAATC (((..(((....)))))) | kcal/mol | -13.2
GCATACGGAAACGTGTGC (((.(((....))).))) | kcal/mol | -50.6
GAAGTACGAAAGTATTTC (((.(((....))).))) | kcal/mol | -28.9

# return recorded folding enthalpy for input GATCACCACTGTGATC ((((((....))))))
-43.5

Report folding enthalpy, nothing else, for this sequence: GTTTGCGAAAGCAGAAC ((((((....))).)))
-13.7

Kindly indicate its recorded folding enthalpy. Item: GGTTCTGGAAACAGAATC (.(((((....))))).)
-34.2

Entry GTTCAGGGAAACCCGAAC ((((.((....)).)))) needs its folding enthalpy filled in; supply it.
-31.7

Provide folding enthalpy value for the following sequence: GCCTCGCGAAAGCGCGGC (((.(((....))).)))
-40.8

Quickly give me recorded folding enthalpy for GGAGCAGAAATGCTCC ((((((....))))))
-36.9

Consider the sequence GCCAACGAAAGTTTAGGC ((((((....)))..))) and give its recorded folding enthalpy.
-28.2

Return reported folding enthalpy. Input sequence: GTTGGCCCGAAAGGGAAC (((..(((....))))))
-18.8
